Entries and their pKd
Target: T1, GST-tagged hNav1.7-loopA3 (human, UniProt Q15858 269-339)
T1 construct: monomeric GST-tagged peptide; also called hNav1.7-loopA3-GST; Nav1.7-loopA3-GST; not shown: GST tag
T1 sequence (Q15858 269-339 limits assumed): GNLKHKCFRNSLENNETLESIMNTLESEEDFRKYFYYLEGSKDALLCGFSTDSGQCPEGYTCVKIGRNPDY
Assay: Biacore SPR, antigen on CM5 chip, mAb in flow
Lab note: report pKd as minus log10 of the concentration in molar units, number only.

Solved entries:
In plain terms, 4F6 (antibody, human IgG1, V domains shown) VH: QLQLVESGGGLVQPGGSLRLSCAASGFTFDDYAMSWVRQAPGKGLEWVSAISWNGGSTYYAESMKGRFTISRDNAKNTLYLQMNSLKSKDTAVYYCARRRYGLGSEYDYWGQGTQVTVSS VL: HSAVTQPSAVSVSLGQTARITCQGTNLRSSYVHWYQQMPGQAPVLVIYRDSERPSGIPERFSGSSSGGTATLAISGAQAEDEADYYCQSAHRSESAVFGGGTHLTVLG has a documented pKd of 8.47

In plain terms, 2F12 (antibody, human IgG1, V domains shown) VH: QVQLVESGGGLVQPGGSLRLSCAASGFTFSSYWMYWVRQAPGKGLEWVSAINTGGGSTYYADSVKGRFTISRDNAKNTLYLQMNSLKPEDTALYYCARGPGYSGKYIEGWAYWGQGTQVTVSS VL: DIVMTQSPRSVTASVGEKVFINCKSSQSVVSESNQRSYLNWYQQRPGQSPRLLIYYASTQESGLPDRFSGSGSTTDFTLTISSVQPEDAAVYYCQQAYSAPYSFGSGTRLEIK has a documented pKd of 10.77

# next binder below
In plain terms, 4E8 (antibody, human IgG1, V domains shown) VH: EVQLQESGGGLVQPGGSLRLSCAASGFTFDDYAMSWVRQAPGKGLEWVSAISWNGGSTYYAESMKGRFTISRDNAKNTLYLQMNSLKSKDTAVYYCARRRYGLGSEYDYWGQGTQVTVSS VL: NFMLTQPSAVSVSLGQTARITCQGSSFGSSYAHWYQQMPGQAPILVIYRDSERPSGIPDRFSGSNSGGTATLTISGAQAEDEADYYCQSGSSSGNAHAVFGGGTHLTVLG has a documented pKd of 7.34

Reference for the values: patent US20160207996A1
